Provenance of the data: PubChem BioAssay (NCI)

ASSAY_NOTES: NCI Yeast Anticancer Drug Screen. Data for the cln2 rad14 strain (AID 165)
RECORDED_CONDITIONS: S. cerevisiae cln2 rad14 strain, at 50.0 µM
The panel holds about 79,000 compounds, 15% with a hit somewhere; the sample as a whole holds those more often. The source made the active and inactive calls. No stated cut-off is given here; in the data, active means growth inhibition above about 70%; inactive means the rest. Where a SMILES comes first, the peptide text is derived from it.
Outcomes: active, inactive

- MOLECULE: "C(=N\\N1CCN(/N=C/c2ccc3ccccc3n2)CC1)/c1ccc2ccccc2n1"
  CLASS_ASSIGNMENT: "inactive"
- MOLECULE: "O=C(O)c1c(I)cc(I)c(O)c1I"
  CLASS_ASSIGNMENT: "inactive"
- MOLECULE: "CC(=O)Nc1cccc(O)c1"
  CLASS_ASSIGNMENT: "inactive"
- MOLECULE: "COn1c(-c2ccccc2)nc2c1C(=O)N(C)CN2C"
  CLASS_ASSIGNMENT: "inactive"
- MOLECULE: "N#Cc1ccc(Nc2cnc3ccc(N)cc3n2)cc1"
  CLASS_ASSIGNMENT: "inactive"
- MOLECULE: "Nc1cc(Cl)c([N+](=O)[O-])cc1O"
  CLASS_ASSIGNMENT: "inactive"
- MOLECULE: "NC(=O)C1C(=O)c2cccc3c2C1CCCC3 (stereo unspecified)"
  CLASS_ASSIGNMENT: "inactive"
- MOLECULE: "CC(C)CC(NC(=O)C(CCC(=O)O)NC(=O)CNC(=O)CNC(=O)C(CO)NC(=O)C(CC(C)C)NC(=O)C(NC(=O)C(CO)NC(=O)C(C)NC(=O)C(CCCNC(=N)N)NC(=O)C(C)NC(=O)CN)C(C)C)C(=O)NC(CC(=O)O)C(=O)NC(CCCNC(=N)N)C(=O)NC(Cc1c[nH]c2ccccc12)C(=O)NC(Cc1ccc(O)cc1)C(N)=O (stereo unspecified) (H-GARASVLSGGELDRWY-NH2; configuration not given here)"
  CLASS_ASSIGNMENT: "inactive"
- MOLECULE: "Cc1ccc(CSC(=S)NNc2ccccc2)cc1C"
  CLASS_ASSIGNMENT: "inactive"
- MOLECULE: "O=C(Nc1cccc2ccccc12)Oc1cccc2cccnc12"
  CLASS_ASSIGNMENT: "active"
- MOLECULE: "CC1(C)OC[C@@H](O)[C@H](Br)CO1"
  CLASS_ASSIGNMENT: "inactive"
- MOLECULE: "Fc1ccc(C2(c3ccc(F)cc3)CCCO2)cc1"
  CLASS_ASSIGNMENT: "inactive"
- MOLECULE: "CC(C)SCCC#N"
  CLASS_ASSIGNMENT: "inactive"
- MOLECULE: "O=C1C=C(Nc2ccccc2C(=O)CC(=O)C(=O)Nc2ccc(Cl)c(Cl)c2)c2ccccc2C1=O"
  CLASS_ASSIGNMENT: "inactive"
- MOLECULE: "O=NSC(c1ccccc1)(c1ccccc1)c1ccccc1"
  CLASS_ASSIGNMENT: "inactive"
- MOLECULE: "O=C1NC(c2ccccc2)(c2ccccc2)C(=O)N1CCCCCCN1C(=O)NC(c2ccccc2)(c2ccccc2)C1=O"
  CLASS_ASSIGNMENT: "inactive"
- MOLECULE: "Nc1nc(N)c2nc(/C=C/c3ccc4c(c3)OCO4)cnc2n1"
  CLASS_ASSIGNMENT: "inactive"
- MOLECULE: "CCCC(O)(Cc1ccccc1)c1ccccc1 (stereo unspecified)"
  CLASS_ASSIGNMENT: "inactive"
- MOLECULE: "CCOC(=O)C(NC(=O)/C=C\\C(=O)O)C(C)C (stereo unspecified)"
  CLASS_ASSIGNMENT: "inactive"
- MOLECULE: "CCOC(=O)c1ccc(NC(=O)/C=C/C(=O)O)cc1"
  CLASS_ASSIGNMENT: "inactive"
- MOLECULE: "CCCCCCCC/C=C\\CCCCCCCC(=O)OCCN(CCOC(=O)CCCCCCC/C=C/CCCCCCCC)C(=O)COC(=O)CCCCCCC/C=C\\CCCCCCCC"
  CLASS_ASSIGNMENT: "inactive"
